# System: CCRF-CEM
# assay.name: NCI tumour cell line growth inhibition, 48 h
The source made the active and inactive calls. No stated cut-off is given here; in the data, active = GI50 up to about 1.1 µM and inactive = higher.
Your answer must be one of the following: active, inactive

**Q:** I'd appreciate the recorded outcome for `N#Cc1nc(/C=C/c2cccs2)oc1N` from this test.
**A:** inactive

**Q:** I'd appreciate the recorded outcome for Cc1c(CNc2ccc(C(=O)NC(CCCNC(=O)c3ccccc3C(=O)O)C(=O)O)cc2)cnc2nc(N)nc(N)c12 (centres undefined) from this test.
**A:** active

**Q:** I'd appreciate the recorded outcome for `Cn1c(=O)c2c(nc(N/N=C3/SCC(=O)N3Cc3ccccc3)n2C)n(C)c1=O` from this test.
**A:** inactive

**Q:** I'd appreciate the recorded outcome for `Cc1cccc(Nc2cn(COCc3ccccc3)c(=O)[nH]c2=O)c1` from this test.
**A:** inactive

**Q:** I'd appreciate the recorded outcome for `O=C(NNc1ccccc1)c1ccc(Cl)c(Cl)c1` from this test.
**A:** inactive

**Q:** I'd appreciate the recorded outcome for `CSc1nc(NC(=O)O)c(N(C(C)=O)C(=O)O)c(=O)n1C` from this test.
**A:** inactive

**Q:** I'd appreciate the recorded outcome for `O=Cc1c(Br)[nH]c2ccccc12` from this test.
**A:** inactive

**Q:** I'd appreciate the recorded outcome for `COC(=O)c1ccccc1/C=C1\Cc2c(C)cc(C)cc2C1=O` from this test.
**A:** inactive

**Q:** I'd appreciate the recorded outcome for `COc1ccc2nc3cc(Cl)ccc3c(Sc3ccc([N+](=O)[O-])cc3C)c2c1` from this test.
**A:** inactive

**Q:** I'd appreciate the recorded outcome for CCCCN=C(OC1C=CCCC1)SC (centres undefined) from this test.
**A:** inactive

**Q:** I'd appreciate the recorded outcome for `COc1cc(C)c2c(=O)c3ccccc3n(C)c2c1` from this test.
**A:** inactive

**Q:** I'd appreciate the recorded outcome for COC(=O)C1=C(C(=O)OC)C(Cc2ccccc2)(OO)OC1=O (centres undefined) from this test.
**A:** active

**Q:** I'd appreciate the recorded outcome for COC(=O)C1C2CCCN2OC1(C)CO (centres undefined) from this test.
**A:** inactive

**Q:** I'd appreciate the recorded outcome for `Cc1ccccc1N/C(N)=N/C#N` from this test.
**A:** inactive

**Q:** I'd appreciate the recorded outcome for `O=C1N=C(Nc2ccccc2Cl)N/C1=C\c1ccc(Cl)cc1Cl` from this test.
**A:** inactive

**Q:** I'd appreciate the recorded outcome for `Cc1ccc(C(=O)N/N=C(\N=N\c2cccc([N+](=O)[O-])c2)c2ccc(N(CCC#N)CCC#N)cc2C)cc1` from this test.
**A:** inactive

**Q:** I'd appreciate the recorded outcome for `CN(C)CCNC(=O)Cn1cc([N+](=O)[O-])c(=O)c2ccccc21` from this test.
**A:** inactive

**Q:** I'd appreciate the recorded outcome for `Cc1nc(Nc2ccc(Cl)cc2)sc1C(=O)NNC(=S)NN` from this test.
**A:** inactive

**Q:** I'd appreciate the recorded outcome for `Cc1nc2ccccc2c(=O)n1-c1ccccc1F` from this test.
**A:** inactive

**Q:** I'd appreciate the recorded outcome for CC1CCC2(CC1)NC1=C(CC(C)CC1)C1=C2CC(C)CC1 (centres undefined) from this test.
**A:** inactive

**Q:** I'd appreciate the recorded outcome for `Cc1c(Cl)nc(Cl)nc1Cl` from this test.
**A:** active

**Q:** I'd appreciate the recorded outcome for CCCCSCC(NC(=O)/C=C/c1c(C)[nH]c(=O)[nH]c1=O)C(=O)OC (centres undefined) from this test.
**A:** inactive

**Q:** I'd appreciate the recorded outcome for Cc1cc(C)c(N[S+]([O-])c2cccc([N+](=O)[O-])c2)c(C)c1 (centres undefined) from this test.
**A:** inactive

**Q:** I'd appreciate the recorded outcome for `O=C1Nc2cccc(Cl)c2/C1=C\c1cccnc1` from this test.
**A:** inactive
